- Experiment: qHTS assay for small molecule agonists of retinoid X receptor alpha signaling (AID 588544)
- Recorded conditions: HEK293T RXRa-UAS-bla, beta-lactamase reporter, 18 h; 530 nm emission
Inconclusive results are not listed.
// classify: if (max response < -10%) 1 else 0

Examples from the recorded data:
compound=CC(C)Cc1c(C(=O)O)c(C(F)F)nc(C(F)(F)F)c1C1=NCCS1 class=1
compound=NNS(=O)(=O)c1ccc(Oc2ccc(S(=O)(=O)NN)cc2)cc1 class=0
compound=OC1CCCCCCCCCCC1 class=0
compound=C=C(C)C(=O)OCCC[Si](Cl)(Cl)Cl class=1
compound="CCCCOCC(C)O (stereo not given)" class=0
compound=CCCCCCCCCCCCCCCCN(C)C class=1
compound="CCC/C(=N\\OCC)C1=C(O)CC(O)(CC(C)S(=O)(=O)CC)CC1=O (stereo not given)" class=1

Please find the next compound below.
Here's an entry: CCCCC(CC)COC(=O)/C=C\C(=O)OCC(CC)CCCC (stereo not given) . Is its max response below -10%?
0
